System: PC-3
Assay: Growth inhibition of human PC3 cells after 72 hrs by sulforhodamine B assay
Type: functional
Strictly below 1000 nM in GI50: label 1. Otherwise: label 0.

{"COMPOUND": "COc1ncc(-c2ccc3nccc(/C(C)=C/C(=O)N4CCCC4)c3c2)cc1NS(=O)(=O)c1ccc(F)cc1F", "TARGET OR TEST SYSTEM": "PC-3", "ASSIGNED LABEL": "label 0"}
{"COMPOUND": "COc1ncc(-c2ccc3nccc(/C(C)=C/C(=O)N4CCN(C)CC4)c3c2)cc1NS(=O)(=O)c1ccc(F)cc1F", "TARGET OR TEST SYSTEM": "PC-3", "ASSIGNED LABEL": "label 1"}
{"COMPOUND": "COc1ncc(-c2ccc3nccc(/C(C)=C/C(=O)N(C)CCO)c3c2)cc1NS(=O)(=O)c1ccc(F)cc1F", "TARGET OR TEST SYSTEM": "PC-3", "ASSIGNED LABEL": "label 1"}
{"COMPOUND": "COc1ncc(-c2ccc3nccc(-c4ccnnc4)c3c2)cc1NS(=O)(=O)c1ccc(F)cc1F [OMIPALISIB]", "TARGET OR TEST SYSTEM": "PC-3", "ASSIGNED LABEL": "label 1"}
{"COMPOUND": "COc1ncc(-c2ccc3nccc(/C=C/C(=O)N4CCN(C)CC4)c3c2)cc1NS(=O)(=O)c1ccc(F)cc1F", "TARGET OR TEST SYSTEM": "PC-3", "ASSIGNED LABEL": "label 1"}

Is it true that GI50 reported for COc1ncc(-c2ccc3nccc(/C(C)=C/C(=O)N4CCC(O)CC4)c3c2)cc1NS(=O)(=O)c1ccc(F)cc1F is less than 1000 nM?
label 0

Is it true that GI50 reported for COc1ncc(-c2ccc3nccc(/C(C)=C/C(=O)N4CCOCC4)c3c2)cc1NS(=O)(=O)c1ccc(F)cc1F is less than 1000 nM?
label 0

Is it true that GI50 reported for COc1ncc(-c2ccc3nccc(/C(C)=C\C(=O)N4CCOCC4)c3c2)cc1NS(=O)(=O)c1ccc(F)cc1F is less than 1000 nM?
label 0

* * *

Assay: Half life in Sprague-Dawley rat at 5 mg/kg, po
Type: ADME, organism-based
Details: in vivo
READOUT NAME: half-life

Looking up COc1ncc(-c2ccc3nccc(/C(C)=C/C(=O)N4CCN(C)CC4)c3c2)cc1NS(=O)(=O)c1ccc(F)cc1F , I see its half-life listed as 1.85 h

* * *

Experiment: Cmax in Sprague-Dawley rat at 5 mg/kg, po
Assay type: ADME, organism-based
Set-up: route oral, dose 5 mg/kg
Settings: in vivo
READOUT NAME: Cmax (ng/mL)
Give just the number in ng/mL; leave the unit off.

Looking up COc1ncc(-c2ccc3nccc(/C(C)=C/C(=O)N4CCN(C)CC4)c3c2)cc1NS(=O)(=O)c1ccc(F)cc1F , I see its Cmax listed as 903

* * *

Target: Phosphatidylinositol 4,5-bisphosphate 3-kinase catalytic subunit beta isoform (Homo sapiens)
Sequence (P42338 whole entry, canonical isoform): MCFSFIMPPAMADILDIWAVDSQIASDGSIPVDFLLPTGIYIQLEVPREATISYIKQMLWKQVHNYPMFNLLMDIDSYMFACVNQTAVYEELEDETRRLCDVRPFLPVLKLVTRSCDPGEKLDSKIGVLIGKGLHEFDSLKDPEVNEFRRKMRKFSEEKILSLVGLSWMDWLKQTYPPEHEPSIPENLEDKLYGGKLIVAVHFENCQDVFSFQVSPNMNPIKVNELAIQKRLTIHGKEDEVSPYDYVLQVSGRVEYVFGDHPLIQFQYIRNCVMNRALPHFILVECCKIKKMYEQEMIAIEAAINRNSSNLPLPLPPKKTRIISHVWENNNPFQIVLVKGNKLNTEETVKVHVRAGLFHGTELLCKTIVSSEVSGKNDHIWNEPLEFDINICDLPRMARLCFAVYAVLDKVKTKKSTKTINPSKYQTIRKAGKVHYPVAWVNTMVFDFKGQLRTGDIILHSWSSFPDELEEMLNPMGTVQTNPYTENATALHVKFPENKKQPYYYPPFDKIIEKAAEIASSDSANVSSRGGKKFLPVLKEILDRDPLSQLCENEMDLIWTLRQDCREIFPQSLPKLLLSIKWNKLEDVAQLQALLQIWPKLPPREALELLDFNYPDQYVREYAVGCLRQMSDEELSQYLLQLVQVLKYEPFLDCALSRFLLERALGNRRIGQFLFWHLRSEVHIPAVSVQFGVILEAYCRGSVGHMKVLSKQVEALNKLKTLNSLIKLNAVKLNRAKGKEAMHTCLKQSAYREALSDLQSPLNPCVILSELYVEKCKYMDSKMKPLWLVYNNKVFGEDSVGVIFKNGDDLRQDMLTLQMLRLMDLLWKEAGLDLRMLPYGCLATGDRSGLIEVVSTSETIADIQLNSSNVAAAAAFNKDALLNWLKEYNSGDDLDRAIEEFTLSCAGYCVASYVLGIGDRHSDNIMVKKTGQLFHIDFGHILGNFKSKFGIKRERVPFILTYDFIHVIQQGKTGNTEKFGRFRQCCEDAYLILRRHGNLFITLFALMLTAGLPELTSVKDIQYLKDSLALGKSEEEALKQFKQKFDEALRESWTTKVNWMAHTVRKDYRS
Experiment: Inhibition of PI3Kbeta (unknown origin) using PIP2 as substrate measured after 1 hr by ADP-glo assay
READOUT NAME: IC50
Please don't drop the unit; write it after the number.

Looking up COc1ncc(-c2ccc3nccc(/C(C)=C/C(=O)N4CCN(C)CC4)c3c2)cc1NS(=O)(=O)c1ccc(F)cc1F , I see its IC50 listed as 0.67 nM

* * *

Target: Phosphatidylinositol 4,5-bisphosphate 3-kinase catalytic subunit alpha isoform (Homo sapiens, UniProt P42336)
Sequence (P42336 whole entry, canonical isoform): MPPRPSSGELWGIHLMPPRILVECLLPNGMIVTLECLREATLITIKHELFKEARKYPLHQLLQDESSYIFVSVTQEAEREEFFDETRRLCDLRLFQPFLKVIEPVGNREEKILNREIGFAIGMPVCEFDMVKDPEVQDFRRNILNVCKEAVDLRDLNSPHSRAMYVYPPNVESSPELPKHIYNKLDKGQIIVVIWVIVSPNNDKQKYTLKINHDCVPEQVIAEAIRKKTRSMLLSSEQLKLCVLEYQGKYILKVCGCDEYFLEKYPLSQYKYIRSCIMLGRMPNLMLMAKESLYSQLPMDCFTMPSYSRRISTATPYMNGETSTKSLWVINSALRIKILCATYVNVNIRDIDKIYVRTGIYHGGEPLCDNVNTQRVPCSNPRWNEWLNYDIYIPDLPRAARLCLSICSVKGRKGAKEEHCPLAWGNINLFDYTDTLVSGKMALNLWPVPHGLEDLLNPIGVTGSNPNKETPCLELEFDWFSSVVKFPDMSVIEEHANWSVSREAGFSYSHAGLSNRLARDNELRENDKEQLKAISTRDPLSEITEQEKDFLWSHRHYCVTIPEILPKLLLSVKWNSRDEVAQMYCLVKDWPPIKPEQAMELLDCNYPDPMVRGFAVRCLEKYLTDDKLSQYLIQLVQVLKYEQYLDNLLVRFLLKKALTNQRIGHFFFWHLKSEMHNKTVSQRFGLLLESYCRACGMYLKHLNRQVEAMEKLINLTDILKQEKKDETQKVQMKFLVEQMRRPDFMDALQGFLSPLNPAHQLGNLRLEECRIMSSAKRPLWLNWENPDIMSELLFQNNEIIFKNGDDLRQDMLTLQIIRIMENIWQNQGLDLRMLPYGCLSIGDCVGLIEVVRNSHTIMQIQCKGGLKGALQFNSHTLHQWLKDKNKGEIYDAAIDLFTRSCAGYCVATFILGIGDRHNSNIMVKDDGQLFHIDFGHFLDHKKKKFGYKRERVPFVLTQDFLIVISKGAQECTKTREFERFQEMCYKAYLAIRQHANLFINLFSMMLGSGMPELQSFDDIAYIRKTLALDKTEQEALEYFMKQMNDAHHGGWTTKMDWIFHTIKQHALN
Assay: Inhibition of recombinant human PI3Kalpha using PIP2 as substrate incubated for 1 hr by kinase-glo luminescent assay
Listing of entries alongside the reported pIC50.
Scale: pIC50 equals -log10([C]), with [C] in mol/L.

Illustrative cases are given below, each with its answer.
{"MOLECULE": "COc1ncc(-c2ccc3nccc(/C(C)=C/C(=O)N4CCOCC4)c3c2)cc1NS(=O)(=O)c1ccc(F)cc1F", "pIC50": 8.96}
{"MOLECULE": "COc1ncc(-c2ccc3nccc(/C(C)=C/C(=O)N(C)CCO)c3c2)cc1NS(=O)(=O)c1ccc(F)cc1F", "pIC50": 8.82}
{"MOLECULE": "COc1ncc(-c2ccc3nccc(/C=C/C(=O)N4CCN(C)CC4)c3c2)cc1NS(=O)(=O)c1ccc(F)cc1F", "pIC50": 8.98}

Looking up COc1ncc(-c2ccc3nccc(/C(C)=C/C(=O)N4CCCC4)c3c2)cc1NS(=O)(=O)c1ccc(F)cc1F , I see its pIC50 listed as 8.92

Looking up COc1ncc(-c2ccc3nccc(/C(C)=C/C(=O)N4CCN(C)CC4)c3c2)cc1NS(=O)(=O)c1ccc(F)cc1F , I see its pIC50 listed as 9.10

Looking up COc1ncc(-c2ccc3nccc(/C(C)=C/C(=O)N4CCC(O)CC4)c3c2)cc1NS(=O)(=O)c1ccc(F)cc1F , I see its pIC50 listed as 8.85

Looking up COc1ncc(-c2ccc3nccc(/C(C)=C\C(=O)N4CCOCC4)c3c2)cc1NS(=O)(=O)c1ccc(F)cc1F , I see its pIC50 listed as 7.64

Values from ChEMBL document CHEMBL4732196
